target_under_test: MBP-CMD1 (UniProt A0A2K3D5Z7 1-532)
Sequence (A0A2K3D5Z7 whole entry): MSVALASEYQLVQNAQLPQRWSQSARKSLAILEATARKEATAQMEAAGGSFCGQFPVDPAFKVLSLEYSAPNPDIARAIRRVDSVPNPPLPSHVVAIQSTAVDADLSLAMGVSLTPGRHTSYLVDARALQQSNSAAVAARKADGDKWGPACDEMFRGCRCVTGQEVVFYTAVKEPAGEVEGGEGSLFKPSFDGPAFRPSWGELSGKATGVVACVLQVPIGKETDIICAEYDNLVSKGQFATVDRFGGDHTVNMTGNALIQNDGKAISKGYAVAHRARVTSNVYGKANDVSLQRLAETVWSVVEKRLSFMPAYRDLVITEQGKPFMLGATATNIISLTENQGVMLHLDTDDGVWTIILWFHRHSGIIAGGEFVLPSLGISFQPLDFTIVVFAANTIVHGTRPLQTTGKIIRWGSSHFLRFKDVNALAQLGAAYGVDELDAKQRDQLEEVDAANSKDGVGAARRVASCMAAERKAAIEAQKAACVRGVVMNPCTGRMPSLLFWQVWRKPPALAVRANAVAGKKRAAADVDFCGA
assay_overview: BLI; BLI: 20 mM Tris-HCl pH 8.0, 50 mM NaCl, 0.1% Tween-20, 0.5% BSA, 25 C; biotin-DNA on streptavidin sensors, 1:1 fit
condition_parameters: protein: recombinant; tags: N-terminal MBP via alpha-helical linker; C-terminal His6; label: 5'-biotin; 10 bp palindromic duplex, 3' overhang 4 nt on both strands
measured_quantity: pKd
Scale explanation: pKd corresponds to minus log10 of a concentration expressed in moles per litre.

Prompt: # lookup: pKd of 14-nt 5mC-DNA (BLI) (dsDNA, 5mC at position 3 of both strands) DNA 1: CCCGCGCGGGATGT DNA 2: CCCGCGCGGGATGT
Completion: 6.09
